# credit: ChEMBL document CHEMBL1201862

Tested on: MDA-N
Assay Procedure: NCI tumour cell line growth inhibition, 48 h
Activity calls are given as the source filed them. Rule as the data show it: active = GI50 up to about 1.1 µM and inactive = higher.
Hi there, use one of these labels in your reply, thanks! active, inactive

Sample answers from the record:
Compound | Discrete Label
Cc1[nH]c(=O)[nH]c(=O)c1N(CCF)CCCl | inactive
O=[N+]([O-])/C(Cl)=C(/C(Cl)=C(Cl)Cl)N1CCCCC1 | inactive
O=C([O-])C1([n+]2c(-c3ccccc3)cc(-c3ccccc3)cc2-c2ccccc2)CC1 | inactive
CN(C)c1ccc(/C=C(\NC(=O)c2ccccc2)C(=O)NCC(=O)O)cc1 | inactive
COc1ccc(C2c3cc4c(cc3OC(NNS(=O)(=O)c3ccc(C)cc3)C2C)OCO4)cc1 (stereo not given) | inactive
O=C(/C=C1\N=C(c2ccccc2)N(c2nc3ccc(Sc4ccccc4)cc3[nH]2)C1=O)/C=C/c1ccccc1 | inactive
O=[N+]([O-])c1ccc(S(=O)(=O)Cc2ccccc2)c([N+](=O)[O-])c1 | inactive
CCN1CCN=C2c3cc(OC)ccc3Nc3c([N+](=O)[O-])ccc1c32 | active
COc1c2c(cc3c1-c1c(cc4c(c1OC)OCO4)C1OC3C(C)C1C)OCO2.COc1cc2c(c(OC)c1OC)-c1c(cc3c(c1OC)OCO3)C1OC2C(C)C1C (stereo not given) | inactive
CC(=O)O[C@@H]1O[Si](C(C)(C)C)(C(C)(C)C)[C@H](C)[C@H]1C | inactive

# outcome recorded in this test, key = `N#Cc1c(-c2ccc(Cl)cc2)cc(-c2ccc(Nc3ccnc4cc(C(F)(F)F)ccc34)cc2)[nH]c1=O` inactive

# outcome recorded in this test, key = `O=S(=O)(c1ccccc1)C(c1ccc2ccccc2n1)S(=O)(=O)c1ccccc1` inactive

# outcome recorded in this test, key = COc1cccc(C2c3cc4c(cc3OC(NNc3ccccc3)C2C)OCO4)c1OC (stereo not given) inactive

# outcome recorded in this test, key = `COc1cc2nc3n(c(=O)c2cc1OC)CCCCC3` inactive

# outcome recorded in this test, key = `O=C(Oc1ccccc1)c1cc2cc(CCl)ccc2oc1=O` inactive

# outcome recorded in this test, key = CC1(C)[C@@H]2C[C@H]1c1cnc(-c3ccccn3)cc1[C@H]2C(O)[C@@H]1c2cc(-c3ccccn3)ncc2[C@H]2C[C@@H]1C2(C)C (stereo not given in full) active

# outcome recorded in this test, key = `Cc1ccc(NCCN(C)C)c2c(=O)c3cc(O)ccc3oc12` inactive

# outcome recorded in this test, key = `Nc1nc(NCCCO)cc(=O)[nH]1` inactive

# outcome recorded in this test, key = O=C(O)C1C(C(=O)O)C2C(=O)C=CC1N2Cc1ccccc1 (stereo not given) inactive

# outcome recorded in this test, key = `O=C1c2ccccc2C(=O)c2c(/C=C\N3CCCCC3)ccnc21` active
